System: Anopheles stephensi
Measurement description: Anopheles stephensi treated well plate contact test: knockdown and mortality
Format: in vivo
Stated conditions: test compound 2 ppm plus 2 ppm TFNA-AM, after 48 hours
# key: entry, value: mortality % 48, with TFNA-AM
Give the number; % is assumed, so skip it.

Reference set, count: 4
[[record]]
compound = "O=c1c(-c2cccc(C(F)(F)F)c2)c([O-])[n+](Cc2cncnc2)c2ccccn12 [Triflumizopyrim]"
target_under_test = "Anopheles stephensi"
assay_value = 50

[[record]]
compound = "O=[N+]([O-])c1cc(C(F)(F)F)c(Cl)c([N+](=O)[O-])c1Nc1ncc(C(F)(F)F)cc1Cl [Fluazinam]"
target_under_test = "Anopheles stephensi"
assay_value = 20

[[record]]
compound = "CCOC(=O)CC(SP(=S)(OC)OC)C(=O)OCC (stereo not drawn) [Malathion]"
target_under_test = "Anopheles stephensi"
assay_value = 100

[[record]]
compound = "COP(=S)(OC)Oc1ccc([N+](=O)[O-])c(C)c1 [Fenitrothion]"
target_under_test = "Anopheles stephensi"
assay_value = 100


# return recorded mortality % 48, with TFNA-AM for entry CC(COc1ccc(Oc2ccccc2)cc1)Oc1ccccn1 (stereo not drawn) [Pyriproxyfen]
60

* * *

Tested on: Anopheles stephensi
Measurement description: Anopheles stephensi treated well plate contact test: knockdown and mortality
Format: in vivo
Stated conditions: test compound 0.2 ppm plus 2 ppm TFNA-AM, after 24 hours
Readout kind: mortality % 24, with TFNA-AM (%)
Field format: number, assumed %, no unit text.

[[record]]
compound = "CO/C=C(/C(=O)OC)c1ccccc1Oc1nc(C(C)(C)C)ns1"
target_under_test = "Anopheles stephensi"
readout_kind = "mortality % 24, with TFNA-AM"
assay_value = 80

[[record]]
compound = "OC(c1ccc(Cl)cc1)(c1ccc(Cl)cc1)C(Cl)(Cl)Cl"
target_under_test = "Anopheles stephensi"
readout_kind = "mortality % 24, with TFNA-AM"
assay_value = 20


Provide one value: measured mortality % 24, with TFNA-AM of C/C=C(\C)C(=O)O[C@H]1C[C@@H](OC(C)=O)[C@@]2(C(=O)OC)CO[C@H]3[C@@H](O)[C@@](C)([C@]45O[C@@]4(C)[C@H]4C[C@@H]5O[C@@H]5OC=C[C@@]54O)[C@H]4[C@]1(CO[C@]4(O)C(=O)OC)[C@@H]32
20

Recall and state the measured mortality % 24, with TFNA-AM for CC(C)=C[C@@H]1[C@@H](C(=O)O[C@H](C#N)c2cccc(Oc3ccccc3)c2)C1(C)C (relative stereo) [d-d, trans cyphenothrin] .
60

Please indicate mortality % 24, with TFNA-AM recorded for CC(C)c1cc(Oc2ccccc2)cc(C(C)C)c1NC(=S)NC(C)(C)C
60

Give me measured mortality % 24, with TFNA-AM, please, for this compound: CO/C=C(/C(=O)OC)c1ccccc1COc1cccc(C(F)(F)F)n1
30

Identify measured mortality % 24, with TFNA-AM associated with O=c1c(-c2cccc(C(F)(F)F)c2)c([O-])[n+](Cc2cncnc2)c2ccccn12
0

* * *

Tested on: Anopheles stephensi
Measurement description: Anopheles stephensi treated well plate contact test: knockdown and mortality
Assay type: in vivo
Stated conditions: test compound 2 ppm plus 2 ppm TFNA-AM, after 48 hours
# key: entry, value: mortality % 48, with TFNA-AM
Just the number in %, nothing appended.

Example entries and their recorded answers appear below.
[[record]]
molecule = "CCOc1ccc(C(C)(C)COCc2cccc(Oc3ccccc3)c2)cc1 [Etofenprox]"
assay_value = 100

[[record]]
molecule = "CC(C)c1cc(Oc2ccccc2)cc(C(C)C)c1NC(=S)NC(C)(C)C [Diafenthiuron]"
assay_value = 60

[[record]]
molecule = "CO/C=C(/C(=O)OC)c1ccccc1Oc1nc(C(C)(C)C)ns1 [Compound 48]"
assay_value = 100

[[record]]
molecule = "CO/C=C(/C(=O)OC)c1ccccc1Oc1ncc(C(F)(F)F)s1 [Compound 54]"
assay_value = 100

[[record]]
molecule = "N#Cc1nn(-c2c(Cl)cc(C(F)(F)F)cc2Cl)c(N)c1[S+]([O-])C(F)(F)F (stereo not shown) [Fipronil]"
assay_value = 100


Report its mortality % 48, with TFNA-AM with Anopheles stephensi as the test system: CNC(=O)Oc1ccccc1OC(C)C [Propoxur]
100

Give mortality % 48, with TFNA-AM only, for CCC(Nc1ncnc(C)c1Cl)c1ccc(OC(F)F)cc1 (stereo not shown) [Diflumetorim] , using Anopheles stephensi data.
90
